Test system: Shigella flexneri 2457T
test-summary: Resazurin growth inhibition, dose response (IC50/IC90) in Müller Hinton medium
Type: cell-based
setup-conditions: ATCC700930
Threshold-based label: IC90 under 0.06 µg/mL gives YES, IC90 not under 0.06 µg/mL gives NO.

Sample answers from the record:
• O=C(O)c1cn(C2CC2)c2cc(N3CCNCC3)c(F)cc2c1=O = YES
• CC[C@H]1OC(=O)[C@H](C)[C@@H](O[C@H]2C[C@@](C)(OC)[C@@H](O)[C@H](C)O2)[C@H](C)[C@@H](O[C@@H]2O[C@H](C)C[C@H](N(C)C)[C@H]2O)[C@](C)(O)C[C@@H](C)CN(C)[C@H](C)[C@@H](O)[C@]1(C)O = NO
• CO/N=C(\C(=O)N[C@@H]1C(=O)N2C(C(=O)O)=C(CSc3nc(=O)c(=O)[nH]n3C)CS[C@H]12)c1csc(N)n1 = NO
• CC1(C)S[C@@H]2[C@H](/N=C/N3CCCCCC3)C(=O)N2[C@H]1C(=O)O = YES

Switching to the query record.
Prompt: Please determine if C[C@@H](O)[C@H]1C(=O)N2C(C(=O)O)=C(SC3CN(C4=NCCS4)C3)[C@H](C)[C@H]12 is below 0.06 µg/mL in terms of IC90.
Completion: YES

---

test-summary: in vivo
setup-conditions: female, C57, mouse, po, 39 mg/kg
measured-parameter: AUC(0-t) (ng·h/mL)
Answers are plain numbers, in ng·h/mL.

Prompt: I have this molecule here, C[C@@H](O)[C@H]1C(=O)N2C(C(=O)O)=C(SC3CN(C4=NCCS4)C3)[C@H](C)[C@H]12 , and I need its recorded AUC(0-t).
Completion: 7500

---

test-summary: in vivo
setup-conditions: female, C57, mouse, sc, 39 mg/kg
measured-parameter: AUC(0-t) (ng·h/mL)
One number for each entry, in ng·h/mL.

Prompt: I have this compound here, C[C@@H](O)[C@H]1C(=O)N2C(C(=O)O)=C(SC3CN(C4=NCCS4)C3)[C@H](C)[C@H]12 [Tebipenem] , and I need its recorded AUC(0-t).
Completion: 80400

---

test-summary: in vivo
setup-conditions: female, C57, mouse, sc, 39 mg/kg, Bioavailability, mice, Tebipenem SQ 39 mg/kg, n = 3
measured-parameter: bioavailability (%)
Give bare numbers, in %.

Prompt: I have this compound here, C[C@@H](O)[C@H]1C(=O)N2C(C(=O)O)=C(SC3CN(C4=NCCS4)C3)[C@H](C)[C@H]12 [Tebipenem] , and I need its recorded bioavailability.
Completion: 44

---

test-summary: Intestinal distribution by quantitative LC-MS in mice
Format: in vivo
setup-conditions: female, C57, mouse, duodenum and jejunum, po, 50 mg/kg; read-out: concentration in tissue
Description: One animal was euthanised at 0.25, 0.5, 1, and 4 hr respectively and 2.5–3 cm sections of the intestine (duodenum, jejunum, ileum, caecum, and colon) were collected and frozen at –80 °C. For quantitative LCMS analysis of intestine homogenate, samples were thawed at ambient temperature, mixed with water (1:1) and homogenised by turrax (10 sec). Subsequently, 20 µL of homogenate were mixed with 200 µl of ACN: MeOH (80:20) and filtered using 0.2 µm filter plate (Whatman). […]
measured-parameter: concentration at 240 min

Prompt: I have this compound here, C[C@@H](O)[C@H]1C(=O)N2C(C(=O)O)=C(SC3CN(C4=NCCS4)C3)[C@H](C)[C@H]12 , and I need its recorded concentration at 240 min.
Completion: > 400 ng/g

---

test-summary: in vivo
setup-conditions: female, C57, mouse, po, 39 mg/kg
measured-parameter: Cmax (ng/mL)
Give bare numbers, in ng/mL.

Prompt: I have this compound here, C[C@@H](O)[C@H]1C(=O)N2C(C(=O)O)=C(SC3CN(C4=NCCS4)C3)[C@H](C)[C@H]12 , and I need its recorded Cmax.
Completion: 3700

---

test-summary: in vivo
setup-conditions: female, C57, mouse, 39 mg/kg
measured-parameter: AUC(0-t)
Hi, when you answer, please include the unit after the number. Thanks!

Prompt: I have this compound here, C[C@@H](O)[C@H]1C(=O)N2C(C(=O)O)=C(SC3CN(C4=NCCS4)C3)[C@H](C)[C@H]12 , and I need its recorded AUC(0-t).
Completion: 80000 ng·h/mL

---

test-summary: Intestinal distribution by quantitative LC-MS in mice
Type: in vivo
setup-conditions: female, C57, mouse, duodenum and jejunum, po, 50 mg/kg; read-out: concentration in tissue
measured-parameter: concentration at 15 min

Prompt: I have this compound here, C[C@@H](O)[C@H]1C(=O)N2C(C(=O)O)=C(SC3CN(C4=NCCS4)C3)[C@H](C)[C@H]12 , and I need its recorded concentration at 15 min.
Completion: > 300000 ng/g

---

test-summary: in vivo
setup-conditions: female, C57, mouse, sc, 39 mg/kg
measured-parameter: Tmax (min)
Answers are plain numbers, in min.

Prompt: I have this compound here, C[C@@H](O)[C@H]1C(=O)N2C(C(=O)O)=C(SC3CN(C4=NCCS4)C3)[C@H](C)[C@H]12 , and I need its recorded Tmax.
Completion: 15
